Provide the recorded Relative Lipase Enzyme Activity for the entries that follow.
# Tested on: lipase
# Assay details: Lipase activity retention in detergent use solution (4000 ppm, 5 GPG water; p-nitrophenyl valerate, TRIS buffer pH 8.0)
# Assay type: biochemical
# Particulars: base formula, phosphonate 0.6 wt-%, use solution at 120º F., time 5 min
Give bare numbers, in %.

Worked set:
| Compound | Target or test system | Relative Lipase Enzyme Activity, % |
| --- | --- | --- |
| NCP(=O)(O)O | lipase | 80.17 |
| O=P(O)(O)CN(CP(=O)(O)O)CP(=O)(O)O | lipase | 93.26 |
| O=C(O)CCC(CC(=O)O)(C(=O)O)P(=O)(O)O (stereo not shown) | lipase | 61.52 |

Lab note: measured Relative Lipase Enzyme Activity of CC(O)(P(=O)(O)O)P(=O)(O)O was 62.99

---

# System: protease
# Assay details: Protease activity retention in detergent use solution (4000 ppm, 5 GPG water; peptidyl substrate, glycine buffer pH 9.0)
# Format: biochemical
# Particulars: base formula, phosphonate 0.6 wt-%, use solution at 120° F., time 10 min
Measure: Relative Protease Enzyme Activity (%)
Numbers only, in %.

Worked set:
| Compound | Target or test system | Uom | Measurement |
| --- | --- | --- | --- |
| O=C(O)CCC(CC(=O)O)(C(=O)O)P(=O)(O)O (stereo not shown) | protease | % | 35.81 |
| NCP(=O)(O)O | protease | % | 94.52 |
| CC(O)(P(=O)(O)O)P(=O)(O)O | protease | % | 51.90 |

Lab note: measured Relative Protease Enzyme Activity of O=P(O)(O)CN(CP(=O)(O)O)CP(=O)(O)O was 102.58

---

# Test system: lipase
# Assay details: Lipase activity retention in detergent use solution (4000 ppm, 5 GPG water; p-nitrophenyl valerate, TRIS buffer pH 8.0)
# Format: biochemical
# Particulars: base formula, phosphonate at 0.1% elemental phosphorus, at 120º F. or at room temperature (as titled), time 20 min
# Procedure: The enzyme […] collected up to 4 hours, after a use solution was generated from the detergent composition. During the tests, the samples at different time points were collected and immediately frozen in an acetone/dry ice bath and stored in −80° C. before the activity of the enzyme was evaluated. […] Enzyme activity under presoak or manual warewash conditions was traced quantitatively using a standard protease assay. […]
Provide the recorded Relative Lipase Enzyme Activity for the entries that follow.
Give bare numbers, in %.

Worked set:
| Compound | Measurement |
| --- | --- |
| NCP(=O)(O)O [AMPA, Aminomethyl phosphonic acid] | 62.55 |
| CC(O)(P(=O)(O)O)P(=O)(O)O [HEDP] | 51.16 |
| O=C(O)CCC(CC(=O)O)(C(=O)O)P(=O)(O)O (stereo not shown) [PBTC, Phosphonebutane tricarboxylic acid] | 56.53 |

Lab note: next compound to report on.
Lab note: measured Relative Lipase Enzyme Activity of O=P(O)(O)CN(CP(=O)(O)O)CP(=O)(O)O [ATMP, Aminotri (methylene phosphonic acid)] was 64.87

---

# System: protease
# Assay details: Protease activity retention in detergent use solution (4000 ppm, 5 GPG water; peptidyl substrate, glycine buffer pH 9.0)
# Format: biochemical
# Particulars: base formula, phosphonate at 0.1% elemental phosphorus, use solution at 120° F., time 240 min
Provide the recorded Relative Protease Enzyme Activity for the entries that follow.
Give bare numbers, in %.

| Compound | Measure | Uom | Measurement |
| --- | --- | --- | --- |
| NCP(=O)(O)O | Relative Protease Enzyme Activity | % | 28.25 |
| O=C(O)CCC(CC(=O)O)(C(=O)O)P(=O)(O)O (stereo not shown) | Relative Protease Enzyme Activity | % | 0.42 |
| CC(O)(P(=O)(O)O)P(=O)(O)O | Relative Protease Enzyme Activity | % | 0.45 |

Lab note: next compound to report on.
Lab note: measured Relative Protease Enzyme Activity of O=P(O)(O)CN(CP(=O)(O)O)CP(=O)(O)O was 88.60
